experiment: AUC in Wistar rat at 5 mg/kg, iv; format: ADME, organism-based; design: dose 5 mg/kg, route intravenous; settings: plasma
READOUT: AUC (ng·h/mL)

In [3]: df
Out[3]:
                                   compound  result_number
0  COc1ccc(N2Cc3cnc(Nc4ccccc4)nc3N([C@@H]3CC[C@@H](O)C3)C2=O)cc1 (racemic)           4010

* * *

experiment: Cmax in C57/BL6 mouse at 100 mg/kg, po bid for 5 days; assay type: ADME, organism-based; design: dose 100 mg/kg, route oral; conditions: in vivo
READOUT: Cmax (ng/mL)

                                   molecule  value_units  result_number
0  COc1ccc(N2Cc3cnc(Nc4ccccc4)nc3N([C@@H]3CC[C@@H](O)C3)C2=O)cc1 (racemic)        ng/mL          47700
